Target: hSSTR4 (Homo sapiens)
Construct: expressed in transfected cells
Sequence (P31391 whole entry): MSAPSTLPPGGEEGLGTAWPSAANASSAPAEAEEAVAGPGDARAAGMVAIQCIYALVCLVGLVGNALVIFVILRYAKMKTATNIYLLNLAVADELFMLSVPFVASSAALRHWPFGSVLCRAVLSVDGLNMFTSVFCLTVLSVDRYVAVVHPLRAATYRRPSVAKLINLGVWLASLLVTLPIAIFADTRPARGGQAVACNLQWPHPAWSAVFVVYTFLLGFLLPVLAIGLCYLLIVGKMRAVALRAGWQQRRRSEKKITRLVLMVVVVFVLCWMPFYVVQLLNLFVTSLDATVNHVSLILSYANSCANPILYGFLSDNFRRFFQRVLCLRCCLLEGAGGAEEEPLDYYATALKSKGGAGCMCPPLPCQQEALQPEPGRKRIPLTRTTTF
Test: inhibition of cAMP via hSSTR4
Format: cell-based
Conditions: selectivity for inhibition of cAMP via hSSTR2 vs. hSSTR4
Property measured: hSST4/hSST2 (ratio)

Consider the reported hSST4/hSST2 (ratio) for these molecules:
CCNc1ncc(-c2cc(C)cc(F)c2)c(N2CCC(N)CC2)c1-c1nc2cc(F)c(F)cc2[nH]1 [Compound 1-50] = a (above 50)
Cc1cc(F)cc(-c2cnc(N)c(-c3nc4cc(Cl)cc(F)c4[nH]3)c2N2CCC(N)CC2)c1 [Compound 1-54] = a (above 50)
Cc1cc(F)cc(-c2cnc(N)c(-c3nc4cc(F)ccc4[nH]3)c2N2CCC(N)CC2)c1 [Compound 1-6] = b (between 15 and 50)
Cc1cc(F)cc(-c2cnc(N)c(-c3nc4cccc(C)c4[nH]3)c2N2CCC(N)CC2)c1 [Compound 1-10] = c (between 2.5 and 15)
COc1cc(F)cc2nc(-c3c(N(C)C)ncc(-c4cc(C)cc(F)c4)c3N3CCC(N)CC3)[nH]c12 [Compound 4-6] = b (between 15 and 50)
Cc1cc(F)cc(-c2cnc(N)c(-c3nc4cc(Cl)ccc4[nH]3)c2N2CCC(N)CC2)c1 [Compound 1-1] = b (between 15 and 50)
Cc1cc(F)cc(-c2cnc(N)c(-c3nc4cc(F)cc(OCC#N)c4[nH]3)c2N2CCC(N)CC2)c1 [Compound 1-74] = c (between 2.5 and 15)
COc1ccc2[nH]c(-c3c(N)ncc(-c4cc(C)cc(F)c4)c3N3CCC(N)CC3)nc2c1 [Compound 1-8] = b (between 15 and 50)
Cc1cc(F)cc(-c2cnc(N)c(-c3nc4cc(F)c(F)cc4n3C)c2N2CCC(N)CC2)c1 [Compound 1-57] = a (above 50)
CCNc1ncc(-c2cc(C)cc(F)c2)c(N2CCC(N)CC2)c1-c1nc2cc(F)cc(F)c2[nH]1 [Compound 1-49] = a (above 50)

The observed hSST4/hSST2 (ratio) for CNc1ncc(-c2cc(C)cc(F)c2)c(N2CCC(N)CC2)c1-c1nc2cc(Cl)ccc2[nH]1 [Compound 1-28] when tested with hSSTR4 (Homo sapiens) stands at a (above 50)

The observed hSST4/hSST2 (ratio) for COc1cc(F)cc2nc(-c3c(N4CC(F)C4)ncc(-c4cc(C)cc(F)c4)c3N3CCC(N)CC3)[nH]c12 [Compound 4-7] when tested with hSSTR4 (Homo sapiens) stands at a (above 50)

The observed hSST4/hSST2 (ratio) for CNc1ncc(-c2cc(C)cc(F)c2)c(N2CCC(N)CC2)c1-c1nc2cc(Cl)cc(F)c2[nH]1 [Compound 1-75] when tested with hSSTR4 (Homo sapiens) stands at a (above 50)

The observed hSST4/hSST2 (ratio) for CCNc1ncc(-c2cc(C)cc(F)c2)c(N2CCC(N)CC2)c1-c1nc2cc(Cl)ccc2[nH]1 [Compound 1-30] when tested with hSSTR4 (Homo sapiens) stands at a (above 50)

The observed hSST4/hSST2 (ratio) for CCn1c(-c2c(N)ncc(-c3cc(C)cc(F)c3)c2N2CCC(N)CC2)nc2cc(F)c(F)cc21 [Compound 1-5] when tested with hSSTR4 (Homo sapiens) stands at b (between 15 and 50)
